Target: HRgpA-6H (Porphyromonas gingivalis) (UniProt P28784)
Assay: SPR Biacore 8K, 25 C; table lists HRgpA-6H as ligand, antibody as analyte
The following binders are shown together with reported Kd values.
Answer format: numeric, nM implied, no suffix.

{"binder": "H8 (antibody, V domains shown) VH: QVQLQESGPGLVKPSETLSLTCTVSGFSLSIYSVHWIRQPPGKGLEWIGMIWGGGSSDYNSALKSRLTISKDTSKNQVSLKLSSVTAADTAVYYCARNGNFYAMDYWGQGTLVTVSS VL: EIVLTQSPGTLSLSPGERATLSCTASSSVSSSFLHWYQQKPGQAPQLWIYSTSNLASGIPARFSGSGSGTDYTLTISRLEPEDFATYYCHQYHHSPYIYTFGGGTKLEIK", "Kd [nM]": 1.33}
{"binder": "H5 (antibody, V domains shown) VH: QVQLQESGPGLVKPSETLSLTCTVSGFSLSIYSVHWIRQPPGKGLEWIGMIWGGGSSDYNSALKSRLTISKDTSKNQVSLKLSSVTAADTAVYYCARNGNFYAMDYWGQGTLVTVSS VL: EIVLTQSPGTLSLSPGERATLSCTASSSVSSSFLHWYQQKPGQAPRLLIYSTSNLASGIPDRFSGSGSGTDFTLTISRLEPEDFAVYYCHQYHHSPYIYTFGGGTKLEIK", "Kd [nM]": 0.825}
{"binder": "KB001 (antibody, V domains shown) VH: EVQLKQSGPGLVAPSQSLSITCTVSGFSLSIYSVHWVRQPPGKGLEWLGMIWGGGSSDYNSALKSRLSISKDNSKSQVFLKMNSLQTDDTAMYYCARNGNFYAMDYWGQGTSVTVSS VL: QIVLTQSPAIMSASLGERVTMTCTASSSVSSSFLHWYQQKPGSSPQLWIYSTSNLASGVPARFSGSGSGTSYSLTISSMEAEDAATYYCHQYHHSPYIYTFGGGTKLEIKR", "Kd [nM]": 2.02}

Prompt: // Kd lookup, key: H7 (antibody, V domains shown) VH: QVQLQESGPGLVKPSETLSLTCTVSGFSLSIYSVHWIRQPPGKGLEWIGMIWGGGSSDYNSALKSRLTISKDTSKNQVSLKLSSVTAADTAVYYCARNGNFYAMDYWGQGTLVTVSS VL: EIVLTQSPGTLSLSPGERATLSCTASSSVSSSFLHWYQQKPGQAPQLWIYSTSNLASGIPDRFSGSGSGTDYTLTISRLEPEDFATYYCHQYHHSPYIYTFGGGTKLEIK
Response: 0.258
